- testSystem: Myo3, P36006
- measurementProtocol: SPOT array
- assayConditions: median of control spots 468
readoutKind: SPOT intensity

Answered examples (5):
{"binder": "AATTSTPPLPRRRAT", "SPOT intensity": 31}
{"binder": "TSIEIPKRSPLRFTS", "SPOT intensity": 4}
{"binder": "KNRKNLPTIPIRLSG", "SPOT intensity": 5}
{"binder": "GKKVRPLLVLLLSRA", "SPOT intensity": 7}
{"binder": "LSKRLPLRFPEHTSS", "SPOT intensity": 0}

P: KFIPSRPAPKPPSSA
Q: YVRRRPRVRLEPLLS
Inquiry: Which record would sort first by descending SPOT intensity, P or Q ? Could you answer with the label of the item you picked?
Reply text: P
